Collected MIC P. aeruginosa ATTC 27853 values appear next to each entry.
Test system: P. aeruginosa ATTC 27853
Assay: microbe, parasite or virus in culture
Conditions: ATTC 27853, 18 h
Where a SMILES comes first, the peptide text is derived from it. Bridges are numbered along the chain shown (N, C = ends). [ ]: non-standard residue; d: D form. The star is where a group is joined. Isonicotinoyl(2-Ph) = O=C(c1ccnc(-c2ccccc2)c1)*; Butanoyl(4-OPh) = O=C(CCCOc1ccccc1)*; dOrn = NCCC[C@@H](N)C(=O)O; dDab = NCC[C@@H](N)C(=O)O; Octanoyl = CCCCCCCC(=O)*; Orn = NCCC[C@H](N)C(=O)O; Dab = NCC[C@H](N)C(=O)O

compound	assayed system	MIC P. aeruginosa ATTC 27853
CCCCCCCC(=O)N[C@H](C(=O)N[C@H](CCCN)C(=O)N[C@H]1CCNC(=O)[C@H]([C@@H](C)O)NC(=O)[C@H](CCN)NC(=O)[C@H](CCN)NC(=O)[C@H](CC(C)C)NC(=O)[C@@H](Cc2ccccc2)NC(=O)[C@H](CCN)NC1=O)[C@@H](C)O [Compound 41] (Octanoyl-T[dOrn][Dab][Dab][dF]L[Dab][Dab]T; lactam 3-C)	P. aeruginosa ATTC 27853	4 µg/mL
CCCCCCCC(=O)N[C@H](C(=O)N[C@@H](CCCN)C(=O)N[C@H]1CCNC(=O)[C@H]([C@@H](C)O)NC(=O)[C@H](CCN)NC(=O)[C@H](CCN)NC(=O)[C@H](CC(C)C)NC(=O)[C@@H](Cc2ccccc2)NC(=O)[C@H](CCN)NC1=O)[C@@H](C)O [Compound 40] (Octanoyl-T[Orn][Dab][Dab][dF]L[Dab][Dab]T; lactam 3-C)	P. aeruginosa ATTC 27853	2 µg/mL
CC(C)C[C@@H]1NC(=O)[C@@H](Cc2ccccc2)NC(=O)[C@H](CCN)NC(=O)[C@@H](NC(=O)[C@H](CCN)NC(=O)[C@@H](NC(=O)c2ccnc(-c3ccccc3)c2)[C@@H](C)O)CCNC(=O)[C@H]([C@@H](C)O)NC(=O)[C@H](CCN)NC(=O)[C@H](CCN)NC1=O [Compound 10] ({Isonicotinoyl(2-Ph)}-T[Dab][Dab][Dab][dF]L[Dab][Dab]T; lactam 3-C)	P. aeruginosa ATTC 27853	1 µg/mL
CCCCCCCC(=O)N[C@H](C(=O)N[C@@H](Cc1c[nH]c2ccccc12)C(=O)N[C@H]1CCNC(=O)[C@H]([C@@H](C)O)NC(=O)[C@H](CCN)NC(=O)[C@H](CCN)NC(=O)[C@H](CC(C)C)NC(=O)[C@@H](Cc2ccccc2)NC(=O)[C@H](CCN)NC1=O)[C@@H](C)O [Compound 46] (Octanoyl-TW[Dab][Dab][dF]L[Dab][Dab]T; lactam 3-C)	P. aeruginosa ATTC 27853	>32 µg/mL
CCCCCCCC(=O)N[C@H](C(=O)N[C@@H](CCN)C(=O)N[C@H]1CCNC(=O)[C@H]([C@@H](C)O)NC(=O)[C@H](CCN)NC(=O)[C@H](CCN)NC(=O)[C@H](CC(C)C)NC(=O)[C@@H](Cc2ccccc2)NC(=O)[C@H](CCN)NC1=O)[C@@H](C)O [Compound 8] (Octanoyl-T[Dab][Dab][Dab][dF]L[Dab][Dab]T; lactam 3-C)	P. aeruginosa ATTC 27853	0.5 µg/mL
CCCCCCCC(=O)N[C@H](C(=O)N[C@@H](Cc1c[nH]cn1)C(=O)N[C@H]1CCNC(=O)[C@H]([C@@H](C)O)NC(=O)[C@H](CCN)NC(=O)[C@H](CCN)NC(=O)[C@H](CC(C)C)NC(=O)[C@@H](Cc2ccccc2)NC(=O)[C@H](CCN)NC1=O)[C@@H](C)O [Compound 47] (Octanoyl-TH[Dab][Dab][dF]L[Dab][Dab]T; lactam 3-C)	P. aeruginosa ATTC 27853	16 µg/mL
CC(C)C[C@@H]1NC(=O)[C@@H](Cc2ccccc2)NC(=O)[C@H](CCN)NC(=O)[C@@H](NC(=O)CNC(=O)[C@@H](NC(=O)CCCOc2ccccc2)[C@@H](C)O)CCNC(=O)[C@H]([C@@H](C)O)NC(=O)[C@H](CCN)NC(=O)[C@H](CCN)NC1=O [Compound 51] ({Butanoyl(4-OPh)}-TG[Dab][Dab][dF]L[Dab][Dab]T; lactam 3-C)	P. aeruginosa ATTC 27853	8 µg/mL
CCCCCCCC(=O)N[C@@H](CCN)C(=O)N[C@H](C(=O)N[C@H]1CCNC(=O)[C@H]([C@@H](C)O)NC(=O)[C@H](CCN)NC(=O)[C@H](CCN)NC(=O)[C@H](CC(C)C)NC(=O)[C@@H](Cc2ccccc2)NC(=O)[C@H](CCN)NC1=O)[C@@H](C)O [Compound 9] (Octanoyl-[Dab]T[Dab][Dab][dF]L[Dab][Dab]T; lactam 3-C)	P. aeruginosa ATTC 27853	32 µg/mL
CCCCCCCC(=O)N[C@H](C(=O)N[C@H](CCN)C(=O)N[C@H]1CCNC(=O)[C@H]([C@@H](C)O)NC(=O)[C@H](CCN)NC(=O)[C@H](CCN)NC(=O)[C@H](CC(C)C)NC(=O)[C@@H](Cc2ccccc2)NC(=O)[C@H](CCN)NC1=O)[C@@H](C)O [Compound 21] (Octanoyl-T[dDab][Dab][Dab][dF]L[Dab][Dab]T; lactam 3-C)	P. aeruginosa ATTC 27853	2 µg/mL
CC(C)C[C@@H]1NC(=O)[C@@H](Cc2ccccc2)NC(=O)[C@H](CCN)NC(=O)[C@@H](NC(=O)[C@H](CCN)NC(=O)[C@@H](N)[C@@H](C)O)CCNC(=O)[C@H]([C@@H](C)O)NC(=O)[C@H](CCN)NC(=O)[C@H](CCN)NC1=O [PMBN, polymyxin B nonapeptide, reference compound] (H-T[Dab][Dab][Dab][dF]L[Dab][Dab]T; lactam 3-C (inferred))	P. aeruginosa ATTC 27853	2 µg/mL
CCCCCCCC(=O)N[C@H](C(=O)N[C@@H](CCN)C(=O)N[C@@H]1CCNC(=O)[C@H]([C@@H](C)O)NC(=O)[C@H](CCN)NC(=O)[C@H](CCN)NC(=O)[C@H](CC(C)C)NC(=O)[C@@H](Cc2ccccc2)NC(=O)[C@H](CCN)NC1=O)[C@@H](C)O [Compound 19] (Octanoyl-T[Dab][dDab][Dab][dF]L[Dab][Dab]T; lactam 3-C)	P. aeruginosa ATTC 27853	>32 µg/mL

----------
System: P. aeruginosa ATTC 27853
Assay: microbe, parasite or virus in culture
Settings: ATTC 27853, 18 h
Where a SMILES comes first, the peptide text is derived from it. Bridges are numbered along the chain shown (N, C = ends). [ ]: non-standard residue; d: D form. The star is where a group is joined. Octanoyl = CCCCCCCC(=O)*; Dab = NCC[C@H](N)C(=O)O; Dap = NC[C@H](N)C(=O)O
Parameter: MIC P. aeruginosa ATTC 27853. Scope: all listed entries.
observed property: MIC P. aeruginosa ATTC 27853

compound	recorded result
CCCCCCCC(=O)N[C@H](C(=O)N[C@@H](CO)C(=O)N[C@H]1CCNC(=O)[C@H]([C@@H](C)O)NC(=O)[C@H](CCN)NC(=O)[C@H](CCN)NC(=O)[C@H](CC(C)C)NC(=O)[C@@H](Cc2ccccc2)NC(=O)[C@H](CCN)NC1=O)[C@@H](C)O [Compound 35] (Octanoyl-TS[Dab][Dab][dF]L[Dab][Dab]T; lactam 3-C)	16 µg/mL
CCCCCCCC(=O)N[C@H](C(=O)N[C@@H](CN)C(=O)N[C@H]1CCNC(=O)[C@H]([C@@H](C)O)NC(=O)[C@H](CCN)NC(=O)[C@H](CCN)NC(=O)[C@H](CC(C)C)NC(=O)[C@@H](Cc2ccccc2)NC(=O)[C@H](CCN)NC1=O)[C@@H](C)O [Compound 39] (Octanoyl-T[Dap][Dab][Dab][dF]L[Dab][Dab]T; lactam 3-C)	1 µg/mL

----------
Tested on: K. pneumoniae ATCC 700603
Assay: microbe, parasite or virus in culture
Conditions: ATCC 700603, 18 h
Where a SMILES comes first, the peptide text is derived from it. Bridges are numbered along the chain shown (N, C = ends). [ ]: non-standard residue; d: D form. The star is where a group is joined. dDab = NCC[C@@H](N)C(=O)O; Octanoyl = CCCCCCCC(=O)*; Dab = NCC[C@H](N)C(=O)O

compound	comparison sign	MIC K. pneumoniae ATCC 700603 (µg/mL)
CCCCCCCC(=O)N[C@H](C(=O)N[C@@H](CCCCN)C(=O)N[C@H]1CCNC(=O)[C@H]([C@@H](C)O)NC(=O)[C@H](CCN)NC(=O)[C@H](CCN)NC(=O)[C@H](CC(C)C)NC(=O)[C@@H](Cc2ccccc2)NC(=O)[C@H](CCN)NC1=O)[C@@H](C)O [Compound 42] (Octanoyl-TK[Dab][Dab][dF]L[Dab][Dab]T; lactam 3-C)	=	16
CCCCCCCC(=O)N[C@@H](Cc1ccc(O)cc1)C(=O)N[C@H](CCN)C(=O)N[C@H]1CCNC(=O)[C@H]([C@@H](C)O)NC(=O)[C@H](CCN)NC(=O)[C@H](CCN)NC(=O)[C@H](CC(C)C)NC(=O)[C@@H](Cc2ccccc2)NC(=O)[C@H](CCN)NC1=O [Compound 29] (Octanoyl-Y[dDab][Dab][Dab][dF]L[Dab][Dab]T; lactam 3-C)	=	16
CCCCCCCC(=O)N[C@H](C(=O)N[C@H](CO)C(=O)N[C@H]1CCNC(=O)[C@H]([C@@H](C)O)NC(=O)[C@H](CCN)NC(=O)[C@H](CCN)NC(=O)[C@H](CC(C)C)NC(=O)[C@@H](Cc2ccccc2)NC(=O)[C@H](CCN)NC1=O)[C@@H](C)O [Compound 36] (Octanoyl-T[dS][Dab][Dab][dF]L[Dab][Dab]T; lactam 3-C)	>	32
